Value source: patent US20070270418A1

system: p38α (Homo sapiens, UniProt Q16539)
Construct: p38 MAP Kinases are recombinant human full-length proteins with an amino-terminal GST fusion; GST (N)
Sequence (Q16539 whole entry, the tested form may be a part): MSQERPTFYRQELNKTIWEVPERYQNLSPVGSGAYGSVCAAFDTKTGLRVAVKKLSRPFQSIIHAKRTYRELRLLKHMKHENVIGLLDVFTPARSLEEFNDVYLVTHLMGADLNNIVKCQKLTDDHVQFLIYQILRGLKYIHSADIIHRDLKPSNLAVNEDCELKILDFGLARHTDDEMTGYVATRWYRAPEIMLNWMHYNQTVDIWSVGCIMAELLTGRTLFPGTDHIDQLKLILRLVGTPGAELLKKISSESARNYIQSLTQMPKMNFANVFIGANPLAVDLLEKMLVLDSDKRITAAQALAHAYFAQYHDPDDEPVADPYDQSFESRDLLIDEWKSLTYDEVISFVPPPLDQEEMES
protocol_details: p38 MAP Kinase assay, ATF2 phosphorylation (ELISA)
conditions: 40 μM ATP
pIC50: −log10 of the molar value.
reported_metric: pIC50

CC(C)(CO)CNc1nc(N)cc(-c2c(-c3ccc(F)cc3)nc3sccn23)n1	5.99
CC(C)[C@@H](CO)Nc1nccc(-c2c(-c3ccc(Br)cc3)nc3sccn23)n1 [CCI]	7.12

(a) OCCCCCCNc1nccc(-c2c(-c3ccc(F)cc3)nc3occn23)n1
(b) OCC(O)CNc1nccc(-c2c(-c3ccc(F)cc3)nc3occn23)n1 (centres unmarked)
(c) OCCOCCNc1nccc(-c2c(-c3ccc(F)cc3)nc3occn23)n1
Q: Sort by pIC50, descending. Thanks in advance for listing the labels in the requested order.
A: a, c, b
